From: ChEMBL document CHEMBL4177578

# Test system: Staphylococcus aureus
# run_description: Antimicrobial activity against Staphylococcus aureus at 1 mg/ml incubated for 20 to 30 mins followed by incubation for 24 hrs at 37 degC by agar plate method
# Assay type: functional
The source made the active and inactive calls. The calls are words filed in the database; no cut-off is given here.
endpoint_name: diameter of the inhibition zone (DIZ)

Field: example entries. Status: answers known.
In [3]: df
Out[3]:
                         compound_structure    experimental_target  measured_value
0  [N-]=[N+]=NCc1cn(-c2ccccc2)nc1-c1ccc(Cl)cc1Cl  Staphylococcus aureus        inactive
1  FC(F)(F)c1ccccc1-c1cn(Cc2cn(-c3ccccc3)nc2-c2ccccc2)nn1  Staphylococcus aureus        inactive
2  Clc1ccc(-c2nn(-c3ccccc3)cc2Cn2cc(-c3ccccc3)nn2)cc1  Staphylococcus aureus        inactive
3  COc1ccc(-c2cn(Cc3cn(-c4ccccc4)nc3-c3ccccc3)nn2)c(C)c1  Staphylococcus aureus        inactive
4  Fc1ccc(-c2cn(Cc3cn(-c4ccccc4)nc3-c3ccccc3)nn2)cc1  Staphylococcus aureus        inactive
5  COC(=O)c1nnn(Cc2cn(-c3ccccc3)nc2-c2ccc(Cl)cc2)c1C(=O)OC  Staphylococcus aureus        inactive

Enquiry: What value of diameter of the inhibition zone (DIZ) has been recorded for this entry: Nc1ccc(-c2cn(Cc3cn(-c4ccccc4)nc3-c3ccccc3)nn2)cc1
Return: inactive

* * *

# run_description: Anti-inflammatory activity using bovine serum albumin and egg albumin proteins incubated at 37 degC for 20 mins and then heated to 95 degC for 20 mins by UV-visible Spectrophotometry based protein denaturation method
# Assay type: functional
endpoint_name: IC50

                         compound_structure  measured_value
0  Brc1ccc(-c2cn(Cc3cn(-c4ccccc4)nc3-c3ccccc3)nn2)cc1      Not Active
1  COC(=O)c1nnn(Cc2cn(-c3ccccc3)nc2-c2ccc(OC)cc2)c1C(=O)OC      Not Active
2  Clc1ccc(-c2cn(Cc3cn(-c4ccccc4)nc3-c3ccccc3)nn2)cc1      Not Active
3  FC(F)(F)c1ccc(-c2cn(Cc3cn(-c4ccccc4)nc3-c3ccccc3)nn2)c(C(F)(F)F)c1      Not Active
4  Cc1ccc(-n2cc(Cn3cc(-c4ccccc4)nn3)c(-c3ccccc3)n2)cc1      Not Active

Enquiry: What measured IC50 goes with [N-]=[N+]=NCc1cn(-c2ccc(Cl)cc2)nc1-c1ccccc1 ?
Return: Not Active

Enquiry: Any idea what IC50 was measured for COc1ccc(-c2cn(Cc3cn(-c4ccccc4)nc3-c3ccccc3)nn2)c(C)c1 ?
Return: Not Active

Enquiry: Reported IC50, compound COC(=O)c1nnn(Cc2cn(-c3ccccc3)nc2-c2ccc(Cl)cc2)c1C(=O)OC : ____
Return: Not Active

Enquiry: Query (compound): [N-]=[N+]=NCc1cn(-c2ccccc2)nc1-c1ccccc1 ; field requested: IC50
Return: Not Active

* * *

# Test system: Micrococcus luteus
# run_description: Antimicrobial activity against Micrococcus luteus at 1 mg/ml incubated for 20 to 30 mins followed by incubation for 24 hrs at 37 degC by agar plate method
# Assay type: functional
Activity calls are given as the source filed them. The rule behind the calls is not given here.
endpoint_name: diameter of the inhibition zone (DIZ)

Worked examples, 10 compounds total:
In [3]: df
Out[3]:
                         compound_structure                          endpoint_name  measured_value
0   [N-]=[N+]=NCc1cn(-c2ccccc2)nc1-c1ccccc1  diameter of the inhibition zone (DIZ)        inactive
1  Cc1ccc(-c2cn(Cc3cn(-c4ccccc4)nc3-c3ccccc3)nn2)cc1  diameter of the inhibition zone (DIZ)        inactive
2  COC(=O)c1nnn(Cc2cn(-c3ccc(Cl)cc3)nc2-c2ccccc2)c1C(=O)OC  diameter of the inhibition zone (DIZ)        inactive
3  CCOC(=O)c1nnn(Cc2cn(-c3ccccc3)nc2-c2ccc(Cl)cc2)c1C(=O)OCC  diameter of the inhibition zone (DIZ)        inactive
4  Clc1ccc(-c2cn(Cc3cn(-c4ccccc4)nc3-c3ccccc3)nn2)cc1  diameter of the inhibition zone (DIZ)        inactive
5  CCOC(=O)c1nnn(Cc2cn(-c3ccc(C)cc3)nc2-c2ccccc2)c1C(=O)OCC  diameter of the inhibition zone (DIZ)        inactive
6  [N-]=[N+]=NCc1cn(-c2ccc(Cl)cc2)nc1-c1ccccc1  diameter of the inhibition zone (DIZ)        inactive
7  CCOC(=O)c1nnn(Cc2cn(-c3ccccc3)nc2-c2ccc(C)cc2)c1C(=O)OCC  diameter of the inhibition zone (DIZ)        inactive
8  COC(=O)c1nnn(Cc2cn(-c3ccccc3)nc2-c2ccc(OC)cc2)c1C(=O)OC  diameter of the inhibition zone (DIZ)        inactive
9  CCOC(=O)c1nnn(Cc2cn(-c3ccccc3)nc2-c2ccc(OC)cc2)c1C(=O)OCC  diameter of the inhibition zone (DIZ)        inactive

Enquiry: Fill in: diameter of the inhibition zone (DIZ) of FC(F)(F)c1ccc(-c2cn(Cc3cn(-c4ccccc4)nc3-c3ccccc3)nn2)c(C(F)(F)F)c1 is ___
Return: inactive

Enquiry: Entry under review: [N-]=[N+]=NCc1cn(-c2ccccc2)nc1-c1ccc(Cl)cc1Cl . Reported diameter of the inhibition zone (DIZ)?
Return: inactive

Enquiry: What does the record list as diameter of the inhibition zone (DIZ) for COc1ccc(-c2nn(-c3ccccc3)cc2CN=[N+]=[N-])cc1 ?
Return: inactive

Enquiry: May I ask what diameter of the inhibition zone (DIZ) has been recorded for COc1ccc(-c2cn(Cc3cn(-c4ccccc4)nc3-c3ccccc3)nn2)c(C)c1 ?
Return: inactive

Enquiry: Give the measured diameter of the inhibition zone (DIZ) of COC(=O)c1nnn(Cc2cn(-c3ccccc3)nc2-c2ccc(C)cc2)c1C(=O)OC .
Return: inactive
